target: P2X3 receptor (Mus musculus); construct: native receptor in cultured mouse trigeminal ganglion neurons (WT); experiment: whole-cell patch clamp, agonist concentration-response on native neurons
Sequence (Q3UR32 whole entry): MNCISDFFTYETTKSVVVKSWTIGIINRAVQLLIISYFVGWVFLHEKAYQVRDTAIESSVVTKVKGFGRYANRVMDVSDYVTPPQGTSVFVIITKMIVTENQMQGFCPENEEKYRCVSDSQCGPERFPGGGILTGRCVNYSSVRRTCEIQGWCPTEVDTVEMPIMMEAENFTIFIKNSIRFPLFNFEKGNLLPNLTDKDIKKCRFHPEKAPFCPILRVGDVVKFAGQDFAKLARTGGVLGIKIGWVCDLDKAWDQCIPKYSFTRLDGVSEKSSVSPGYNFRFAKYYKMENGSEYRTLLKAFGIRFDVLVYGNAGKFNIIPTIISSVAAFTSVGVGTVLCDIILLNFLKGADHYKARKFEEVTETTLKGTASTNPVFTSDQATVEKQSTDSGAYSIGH
readoutName: EC50

- recordSmiles: "Nc1ncnc2c1ncn2[C@@H]1O[C@H](COP(=O)(O)CP(=O)(O)OP(=O)(O)O)[C@@H](O)[C@H]1O"
  readoutName: "EC50"
  measurement: "6.9 µM"
